Exercise: state measured IC50 for each of the molecules provided.
Biological target: KRAS G12C (Homo sapiens, UniProt P01116+P62937, G12C)
Sequence (P01116 1-169 isoform P01116-2 G12C): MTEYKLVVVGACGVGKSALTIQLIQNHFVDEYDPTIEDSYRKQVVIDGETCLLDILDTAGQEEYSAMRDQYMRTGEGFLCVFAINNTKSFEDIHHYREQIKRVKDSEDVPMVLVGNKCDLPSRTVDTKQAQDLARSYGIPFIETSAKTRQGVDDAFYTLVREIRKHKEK
Sequence (P62937 whole entry): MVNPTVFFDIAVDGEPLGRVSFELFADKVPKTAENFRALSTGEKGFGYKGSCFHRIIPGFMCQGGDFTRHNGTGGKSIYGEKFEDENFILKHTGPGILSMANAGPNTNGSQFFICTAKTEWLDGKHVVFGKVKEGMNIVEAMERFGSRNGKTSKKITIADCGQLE
Assay: Disruption of BRAF RBD interaction with Ras (FRET / MOA assay, with Cyclophilin A)
Assay type: biochemical
Details: read-out: KRAS G12C FRET data, IC50

Molecule	Measured target	IC50
CCn1c(-c2cccnc2[C@H](C)OC)c2c3cc(ccc31)-c1cc(O)cc(c1)C[C@H](NC(=O)[C@H](C(C)C)N(C)C(=O)[C@H]1CCN(C(=O)[C@@H]3CCCN3C)C1)C(=O)N1CCC[C@H](N1)C(=O)OCC(C)(C)C2 [Example A385]	KRAS G12C (Homo sapiens, UniProt P01116+P62937, G12C)	10 to 100 nM
CCn1c(-c2cccnc2[C@H](C)OC)c2c3cc(ccc31)-c1csc(n1)C[C@H](NC(=O)[C@H](C(C)C)N(C)C(=O)N1CCCC13COC3)C(=O)N1CCC[C@H](N1)C(=O)OCC(C)(C)C2 (atropisomer, axis not shown) [Example A528]	KRAS G12C (Homo sapiens, UniProt P01116+P62937, G12C)	10 to 100 nM
CCn1c(-c2cccnc2[C@H](C)OC)c2c3cc(ccc31)-c1csc(n1)C[C@H](NC(=O)[C@H](C(C)C)N(C)C(=O)N1CCN3CCOC[C@H]3C1)C(=O)N1CCC[C@H](N1)C(=O)OCC(C)(C)C2 [Example A548]	KRAS G12C (Homo sapiens, UniProt P01116+P62937, G12C)	100 to 1000 nM
CCn1c(-c2cc(N3CCN(C)CC3)cnc2[C@H](C)OC)c2c3cc(ccc31)-c1csc(n1)C[C@H](NC(=O)[C@H](C(C)C)N(C)C(=O)N1CC(N(C)C)C1)C(=O)N1CCC[C@H](N1)C(=O)OCC(C)(C)C2 (atropisomer, axis not shown) [Example A477]	KRAS G12C (Homo sapiens, UniProt P01116+P62937, G12C)	10 to 100 nM
CCn1c(-c2cccnc2[C@H](C)OC)c2c3cc(ccc31)-c1csc(n1)C[C@H](NC(=O)[C@@H](OC(=O)N1CC(OC)C1)C(C)C)C(=O)N1CCC[C@H](N1)C(=O)OCC(C)(C)C2 [Example A354]	KRAS G12C (Homo sapiens, UniProt P01116+P62937, G12C)	100 to 1000 nM

Quick request: IC50 for each listed item, please.
1. CCn1c(-c2cccnc2[C@H](C)OC)c2c3cc(ccc31)-c1csc(n1)C[C@H](NC(=O)[C@H](C(C)C)N(C)C(=O)NC)C(=O)N1CCC[C@H](N1)C(=O)OCC(C)(C)C2 [Example A137]
2. CCn1c(-c2cccnc2[C@H](C)OC)c2c3cc(ccc31)-c1csc(n1)C[C@H](NC(=O)[C@H](C(C)C)N(C)C(=O)N(C)CC(C)C)C(=O)N1CCC[C@H](N1)C(=O)OCC(C)(C)C2 [Example A332]
3. CCn1c(-c2cnccc2COC)c2c3cc(ccc31)-c1cc(O)cc(c1)C[C@H](NC(=O)[C@H](C(C)C)N(C)C(=O)[C@H]1CCNC1)C(=O)N1CCC[C@H](N1)C(=O)OCC(C)(C)C2 [Example A10]
4. CCn1c(-c2cccnc2[C@H](C)OC)c2c3cc(ccc31)-c1cc(O)cc(c1)C[C@H](NC(=O)[C@H](C(C)C)N(C)C(=O)[C@@H]1CCNC1)C(=O)N1CCC[C@H](N1)C(=O)OCC(C)(C)C2 [Example A129]

Reply:
1. 100 to 1000 nM
2. 100 to 1000 nM
3. 10 to 100 nM
4. 10 to 100 nM
